B1: Pistol ribozyme (parent)
chain: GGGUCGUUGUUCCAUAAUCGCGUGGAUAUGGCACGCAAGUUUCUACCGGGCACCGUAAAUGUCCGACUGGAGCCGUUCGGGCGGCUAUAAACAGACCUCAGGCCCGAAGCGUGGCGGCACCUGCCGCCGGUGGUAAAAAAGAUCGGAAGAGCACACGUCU

- Variants of: B1
- assay.details: aptazyme ON/OFF ratio, guanine; higher = stronger switching; co-transcriptional cleavage with and without guanine
observable: aptazyme ON/OFF ratio

>>> numeric_result("U7G U8A G9U U11A C13A")
1.09
>>> numeric_result("U7G U8A U10A U11A")
2.2
>>> numeric_result("U7C U8G U10C U11G C12U")
1.97
>>> numeric_result("U7C U8A U10G C12G C13U")
1.41
>>> numeric_result("U8A U10A C12G C13G")
1.19
>>> numeric_result("U8A G9C U10C U11G C12A")
1.07
>>> numeric_result("G9U U10A C13U")
1.54
>>> numeric_result("U7C U8G G9U U10A C12U C13A")
1.2
>>> numeric_result("U7A U8G G9U U10C U11C C13U")
1.07
>>> numeric_result("U8G G9U U11A C13A")
1.33
>>> numeric_result("U7A U8C G9A U10C U11C C13U")
1.02
>>> numeric_result("U7A U8C G9C U11C C12U C13A")
1.04
>>> numeric_result("U7G U10A U11A C12U")
1.16
>>> numeric_result("U7A U8C G9A U11C C12A C13U")
1.23
>>> numeric_result("U7C G9A U10A U11C C12G C13A")
1.27
>>> numeric_result("U7A U8C G9U U10C U11G C12U C13G")
1.18
>>> numeric_result("U7G U8C G9C U11A C12A C13A")
1.11
>>> numeric_result("U7G U10C C12A C13G")
1.1
>>> numeric_result("U7G U8C G9A U10G C13A")
1.28
>>> numeric_result("U8C G9U U10C U11C C12G C13U")
1.07
>>> numeric_result("U7G U8A U10G U11G C13A")
1.28
>>> numeric_result("U8C G9A U10G C13G")
1.14
>>> numeric_result("U8C U10A U11C C13G")
1.04
>>> numeric_result("U7G U8A U10A U11A C13G")
1.15
>>> numeric_result("U8A G9U U10A U11A C12A C13A")
1.16
>>> numeric_result("U8C G9C U10C U11G C12G C13U")
1.08
